Data provenance: ChEMBL document CHEMBL1123225

// reported Relative affinity for each item listed
# system.name: Mu-type opioid receptor (Cavia porcellus)
# test.name: Affinity comparison to [3H]naloxone for Opioid receptor mu 1 in guinea pig brain membrane
# Assay type: cell membranes

smiles.notation	Relative affinity
CN1CC[C@]23c4c5ccc(O)c4O[C@@H]2[C@H](NC(=O)CNC(=O)CNC(=O)CNC(=O)CCC(=O)NCC(=O)NCC(=O)NCC(=O)N[C@@H]2CC[C@]4(O)[C@H]6Cc7ccc(O)c8c7[C@@]4(CCN6C)[C@@H]2O8)CC[C@]3(O)[C@H]1C5	2.9
CN1CC[C@]23c4c5ccc(O)c4O[C@H]2[C@@H](NC(=O)CNC(=O)CCC(=O)NCC(=O)N[C@H]2CC[C@@]4(O)[C@H]6Cc7ccc(O)c8c7[C@@]4(CCN6C)[C@H]2O8)CC[C@@]3(O)[C@H]1C5	4.1
CN1CC[C@]23c4c5ccc(O)c4O[C@@H]2[C@H](NC(=O)CNC(=O)CNC(=O)CCC(=O)NCC(=O)NCC(=O)N[C@@H]2CC[C@]4(O)[C@H]6Cc7ccc(O)c8c7[C@@]4(CCN6C)[C@@H]2O8)CC[C@]3(O)[C@H]1C5	6.3
CN1CC[C@]23c4c5ccc(O)c4O[C@H]2[C@@H](NC(=O)CNC(=O)CNC(=O)CCC(=O)NCC(=O)NCC(=O)N[C@H]2CC[C@@]4(O)[C@H]6Cc7ccc(O)c8c7[C@@]4(CCN6C)[C@H]2O8)CC[C@@]3(O)[C@H]1C5	12.9

* * *

# system.name: Mu-type opioid receptor (Cavia porcellus) (UniProt P97266)
# Sequence (P97266 whole entry): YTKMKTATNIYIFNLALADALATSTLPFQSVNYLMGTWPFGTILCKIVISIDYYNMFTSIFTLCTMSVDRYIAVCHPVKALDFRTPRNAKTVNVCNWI
# test.name: Affinity comparison to [3H]naloxone for Opioid receptor mu 1 in guinea pig brain membrane
# Format: cell membranes
experimental.endpoint: Relative affinity

smiles.notation	experimental.endpoint	reported.result
CC(=O)N[C@@H]1CC[C@@]2(O)[C@H]3Cc4ccc(O)c5c4[C@@]2(CCN3C)[C@H]1O5	Relative affinity	1
CN1CC[C@]23c4c5ccc(O)c4O[C@@H]2[C@H](NC(=O)CNC(=O)CCC(=O)NCC(=O)N[C@@H]2CC[C@]4(O)[C@H]6Cc7ccc(O)c8c7[C@@]4(CCN6C)[C@@H]2O8)CC[C@]3(O)[C@H]1C5	Relative affinity	3.5
O=C(CCC(=O)N[C@@H]1CC[C@@]2(O)[C@H]3Cc4ccc(O)c5c4[C@@]2(CCN3CC2CC2)[C@H]1O5)N[C@@H]1CC[C@@]2(O)[C@H]3Cc4ccc(O)c5c4[C@@]2(CCN3CC2CC2)[C@H]1O5	Relative affinity	0.8
CN1CC[C@]23c4c5ccc(O)c4O[C@H]2[C@@H](NC(=O)CCC(=O)N[C@H]2CC[C@@]4(O)[C@H]6Cc7ccc(O)c8c7[C@@]4(CCN6C)[C@H]2O8)CC[C@@]3(O)[C@H]1C5	Relative affinity	3.6
O=C(CCC(=O)NCC(=O)N[C@@H]1CC[C@@]2(O)[C@H]3Cc4ccc(O)c5c4[C@@]2(CCN3CC2CC2)[C@H]1O5)NCC(=O)N[C@@H]1CC[C@@]2(O)[C@H]3Cc4ccc(O)c5c4[C@@]2(CCN3CC2CC2)[C@H]1O5	Relative affinity	0.6
CN1CC[C@]23c4c5ccc(O)c4O[C@@H]2[C@H](NC(=O)CCC(=O)N[C@@H]2CC[C@]4(O)[C@H]6Cc7ccc(O)c8c7[C@@]4(CCN6C)[C@@H]2O8)CC[C@]3(O)[C@H]1C5	Relative affinity	2.7
O=C(CCC(=O)NCC(=O)NCC(=O)N[C@@H]1CC[C@@]2(O)[C@H]3Cc4ccc(O)c5c4[C@@]2(CCN3CC2CC2)[C@H]1O5)NCC(=O)NCC(=O)N[C@@H]1CC[C@@]2(O)[C@H]3Cc4ccc(O)c5c4[C@@]2(CCN3CC2CC2)[C@H]1O5	Relative affinity	0.9
CN1CC[C@]23c4c5ccc(O)c4O[C@H]2[C@@H](NC(=O)CNC(=O)CNC(=O)CNC(=O)CCC(=O)NCC(=O)NCC(=O)NCC(=O)N[C@H]2CC[C@@]4(O)[C@H]6Cc7ccc(O)c8c7[C@@]4(CCN6C)[C@H]2O8)CC[C@@]3(O)[C@H]1C5	Relative affinity	5.3
O=C(CCC(=O)NCC(=O)NCC(=O)NCC(=O)N[C@@H]1CC[C@@]2(O)[C@H]3Cc4ccc(O)c5c4[C@@]2(CCN3CC2CC2)[C@H]1O5)NCC(=O)NCC(=O)NCC(=O)N[C@@H]1CC[C@@]2(O)[C@H]3Cc4ccc(O)c5c4[C@@]2(CCN3CC2CC2)[C@H]1O5	Relative affinity	0.9

* * *

# test.name: Selectivity ratio is expressed as EK IC50 ratio divided by morphine IC50 ratio

smiles.notation	Selectivity ratio
O=C(CCC(=O)NCC(=O)NCC(=O)N[C@@H]1CC[C@@]2(O)[C@H]3Cc4ccc(O)c5c4[C@@]2(CCN3CC2CC2)[C@H]1O5)NCC(=O)NCC(=O)N[C@@H]1CC[C@@]2(O)[C@H]3Cc4ccc(O)c5c4[C@@]2(CCN3CC2CC2)[C@H]1O5	0.2
O=C(CCC(=O)NCC(=O)NCC(=O)NCC(=O)N[C@@H]1CC[C@@]2(O)[C@H]3Cc4ccc(O)c5c4[C@@]2(CCN3CC2CC2)[C@H]1O5)NCC(=O)NCC(=O)NCC(=O)N[C@@H]1CC[C@@]2(O)[C@H]3Cc4ccc(O)c5c4[C@@]2(CCN3CC2CC2)[C@H]1O5	0.1
O=C(CCC(=O)NCC(=O)N[C@@H]1CC[C@@]2(O)[C@H]3Cc4ccc(O)c5c4[C@@]2(CCN3CC2CC2)[C@H]1O5)NCC(=O)N[C@@H]1CC[C@@]2(O)[C@H]3Cc4ccc(O)c5c4[C@@]2(CCN3CC2CC2)[C@H]1O5	0.4
O=C(CCC(=O)N[C@@H]1CC[C@@]2(O)[C@H]3Cc4ccc(O)c5c4[C@@]2(CCN3CC2CC2)[C@H]1O5)N[C@@H]1CC[C@@]2(O)[C@H]3Cc4ccc(O)c5c4[C@@]2(CCN3CC2CC2)[C@H]1O5	1.1

* * *

# system.name: Opioid receptors; mu & kappa (Homo sapiens, UniProt P41145+P35372)
# test.name: Activity against opioid receptor in guinea pig ileum longitudinal muscle
# Format: functional, tissue-based, Cavia porcellus
# conditions.used: target entry is the homologue from another species
Could you please mark y for values of IC50 below 6 nM and n for values at or above it?

smiles.notation	system.name	class.label
CN1CC[C@]23c4c5ccc(O)c4O[C@H]2[C@@H](NC(=O)CNC(=O)CNC(=O)CCC(=O)NCC(=O)NCC(=O)N[C@H]2CC[C@@]4(O)[C@H]6Cc7ccc(O)c8c7[C@@]4(CCN6C)[C@H]2O8)CC[C@@]3(O)[C@H]1C5	Opioid receptors; mu & kappa (Homo sapiens, UniProt P41145+P35372)	y
CN1CC[C@]23c4c5ccc(O)c4O[C@@H]2[C@H](NC(=O)CNC(=O)CCC(=O)NCC(=O)N[C@@H]2CC[C@]4(O)[C@H]6Cc7ccc(O)c8c7[C@@]4(CCN6C)[C@@H]2O8)CC[C@]3(O)[C@H]1C5	Opioid receptors; mu & kappa (Homo sapiens, UniProt P41145+P35372)	n
CN1CC[C@]23c4c5ccc(O)c4O[C@H]2[C@@H](NC(=O)CNC(=O)CCC(=O)NCC(=O)N[C@H]2CC[C@@]4(O)[C@H]6Cc7ccc(O)c8c7[C@@]4(CCN6C)[C@H]2O8)CC[C@@]3(O)[C@H]1C5	Opioid receptors; mu & kappa (Homo sapiens, UniProt P41145+P35372)	n
CN1CC[C@]23c4c5ccc(O)c4O[C@H]2[C@@H](NC(=O)CNC(=O)CNC(=O)CNC(=O)CCC(=O)NCC(=O)NCC(=O)NCC(=O)N[C@H]2CC[C@@]4(O)[C@H]6Cc7ccc(O)c8c7[C@@]4(CCN6C)[C@H]2O8)CC[C@@]3(O)[C@H]1C5	Opioid receptors; mu & kappa (Homo sapiens, UniProt P41145+P35372)	n
CN1CC[C@]23c4c5ccc(O)c4O[C@@H]2[C@H](NC(=O)CNC(=O)CNC(=O)CCC(=O)NCC(=O)NCC(=O)N[C@@H]2CC[C@]4(O)[C@H]6Cc7ccc(O)c8c7[C@@]4(CCN6C)[C@@H]2O8)CC[C@]3(O)[C@H]1C5	Opioid receptors; mu & kappa (Homo sapiens, UniProt P41145+P35372)	n
CN1CC[C@]23c4c5ccc(O)c4O[C@H]2[C@@H](NC(=O)CCC(=O)N[C@H]2CC[C@@]4(O)[C@H]6Cc7ccc(O)c8c7[C@@]4(CCN6C)[C@H]2O8)CC[C@@]3(O)[C@H]1C5	Opioid receptors; mu & kappa (Homo sapiens, UniProt P41145+P35372)	n

* * *

// reported Ratio for each item listed
# test.name: Relative potency is the IC5O in presence of bivalent ligand divided by IC50 in presence of monovalent ligand relative to EK
experimental.endpoint: Ratio

smiles.notation	experimental.endpoint	reported.result
O=C(CCC(=O)N[C@@H]1CC[C@@]2(O)[C@H]3Cc4ccc(O)c5c4[C@@]2(CCN3CC2CC2)[C@H]1O5)N[C@@H]1CC[C@@]2(O)[C@H]3Cc4ccc(O)c5c4[C@@]2(CCN3CC2CC2)[C@H]1O5	Ratio	25.3
O=C(CCC(=O)NCC(=O)NCC(=O)N[C@@H]1CC[C@@]2(O)[C@H]3Cc4ccc(O)c5c4[C@@]2(CCN3CC2CC2)[C@H]1O5)NCC(=O)NCC(=O)N[C@@H]1CC[C@@]2(O)[C@H]3Cc4ccc(O)c5c4[C@@]2(CCN3CC2CC2)[C@H]1O5	Ratio	10.7
O=C(CCC(=O)NCC(=O)NCC(=O)NCC(=O)N[C@@H]1CC[C@@]2(O)[C@H]3Cc4ccc(O)c5c4[C@@]2(CCN3CC2CC2)[C@H]1O5)NCC(=O)NCC(=O)NCC(=O)N[C@@H]1CC[C@@]2(O)[C@H]3Cc4ccc(O)c5c4[C@@]2(CCN3CC2CC2)[C@H]1O5	Ratio	6.8
O=C(CCC(=O)NCC(=O)N[C@@H]1CC[C@@]2(O)[C@H]3Cc4ccc(O)c5c4[C@@]2(CCN3CC2CC2)[C@H]1O5)NCC(=O)N[C@@H]1CC[C@@]2(O)[C@H]3Cc4ccc(O)c5c4[C@@]2(CCN3CC2CC2)[C@H]1O5	Ratio	18.6
